All figures here come from PubChem BioAssay (NCI).

Tested on: CAKI-1 renal
protocol: NCI-60 one-dose screen, 48 h
experimentalParameters: 10 µM unless noted
This is part of a sample that, as a whole, favours compounds with a hit. Of some 83,000 tested, about 20% had one in any assay. Active and inactive are the calls of the source. How the source made its calls: active means growth percent below 10; inactive means the rest.
Permitted responses: active, inactive

As a guide, the following entries are already answered.
[
  {
    "molecule": "Cc1ccc2c(c1)C(=O)/C(=C\\Nc1ccc(C(N)=O)cc1)C(O)O2 (stereo not given)",
    "target": "CAKI-1 renal",
    "classAssignment": "inactive"
  },
  {
    "molecule": "CN(C)CCCNc1nn2c(=O)c3ccccc3nc2c2ccccc12",
    "target": "CAKI-1 renal",
    "classAssignment": "inactive"
  },
  {
    "molecule": "CCCCCCCCCCOC(C)=O",
    "target": "CAKI-1 renal",
    "classAssignment": "inactive"
  }
]

Exam item: Called result for CCCCN=C(N)c1ccc(OCCSCCOc2ccc(C(N)=NCCCC)cc2)cc1
Marked response: inactive

Exam item: Hey, what did the test say about COc1ccc(CNC(=O)c2c(C)n([O-])c3ccccc3[n+]2=O)cc1 ?
Marked response: inactive

Exam item: Could you please tell me the result logged for O=C1c2cc3c(cc2-c2c1c1ccc(Cl)cc1c(=O)n2CCCNCCO)OCO3 in this assay?
Marked response: active

====

Tested on: HOP-62 NSCLC
protocol: NCI-60 one-dose screen, 48 h
experimentalParameters: 10 µM unless noted
Procedure: Growth inhibition of the HOP-62 human Non-Small Cell Lung tumor cell line is measured as a screen for anti-cancer activity. Cells are grown in 96 well plates and exposed to the test compound for 48 hours. Compounds are tested at a single concentration, which is 10^-5 M for most compounds. The reported endpoint is percent growth (GI% or GIPRCNT), where numbers from 0 - 100% represent growth inhibition, and numbers from -100% - 0 represent cell death. […]
Compounds without any hit were thinned out: in the full panel of roughly 83,000, 20% have a hit. Activity calls are given as the source filed them. How the source made its calls: active means growth percent below 10; inactive means the rest.
Just give me one of these, please: 1 for active, 0 for inactive

# count of solved cases: 3
[
  {
    "compound": "Cc1ccc2nc(SCC(=O)Nc3ccc(-c4nc5ccccc5s4)c(Cl)c3)[nH]c2c1",
    "classAssignment": 0
  },
  {
    "compound": "CCSc1nc(Nc2ccc(S(=O)(=O)Nc3ccon3)cc2)c(C#N)c(-c2cccc(Br)c2)n1",
    "classAssignment": 0
  },
  {
    "compound": "COc1cc(C(=O)c2cc3c(cc2C)OCO3)cc(OC)c1OC",
    "classAssignment": 0
  }
]

Exam item: Hey, what did the test say about O=C1N=C(N2CCOCC2)S/C1=C\c1cn(-c2ccccc2)nc1-c1ccccc1 ?
Marked response: 0

Exam item: Assay result, entry O=[N+]([O-])c1cc([N+](=O)[O-])c(N2CCCC2)cc1NN=C(c1ccc(O)cc1)c1ccc(O)cc1 — outcome?
Marked response: 0

Exam item: Can you look up the reported call for COc1ccc2c(c1)c(CC(=O)[Se]C)c(C)n2C(=O)c1ccc(Cl)cc1 for me?
Marked response: 1

Exam item: Which outcome did this test record for the compound CCCCOP(=O)(OCCCC)C(C(=O)OCC)C(CC(=O)OCC)C(=O)OCC (stereo not given) ?
Marked response: 0

Exam item: For N#Cc1ccc(-c2csc(Nc3ccc4nc5n(c(=O)c4c3)CCC5)n2)cc1 , which call appears in the assay record?
Marked response: 0

Exam item: Short answer needed: outcome of this test for COc1ccc(CNC(=O)c2c(C)n([O-])c3ccc(OC)cc3[n+]2=O)cc1 ?
Marked response: 0

Exam item: Tell me the recorded outcome of this test for OCc1n(Cc2ccc3ccccc3c2)cc[n+]1Cc1ccc2ccccc2c1 .
Marked response: 0

Exam item: Call for entry FCc1ncc(-c2ccc(C(F)(F)F)cc2)c(NC2CCCCCC2)n1 :
Marked response: 0

Exam item: Hi, sorry to bother you, what did the test record for OC(c1cc(-c2cccc(Cl)c2)nc2ccccc12)C1CCCCN1 (stereo not given) ?
Marked response: 1
